- System: TO-N3-2 (biotin conjugate)
- run.description: pull-down binding Z-score (relative to library population); higher = stronger binding
- measurement.setup: RNA library: Library-2
recorded.metric: pull-down binding Z-score

sequence.chain | result.value
GCAAGUUGAAUCUGAUGAUUACAUAGCUACUAAUGGACCACUUAAAGUGGGUGGUAGUUGUGUUUUAAGCGGACACAAUCUUGC | -0.558
AGGCACAUAUGUGAACAUUGUACCA [hsa-mir-5707] | -0.108
UCACACUCAAAGGCGGUGCACCAACAAAGGUUACUUUUGGUGAUGACACUGUGAUAGAAGUGCAAGGUUACAAGAGUGUGAAUAUCACUUUUGAACUUGAUGA [DMSMaPseq_invitro_SARS-CoV-2_Multi_10_ComplexLevel_1] | 0.257
AUAUAGAUAUCAGCUACCUAUAU [hsa-mir-3144] | -1.38
GUUGCAUGUUGUCACGGCCUCAAUGCAAU [hsa-mir-32] | 0.552
UCCCAUUUCCACAUGGAGAGUGGAGCCCAGA [hsa-mir-3123] | 0.671
CUUUACCAACCACCACAAACCUCUAUCACCUCAGCUGUUUUGCAGAGUGGUUUUAGAAAAAUGGCAUUCCCAUCUGGUAAAG | -0.0806
UUUUGCUUGUGUCUCUCCGCUCUGAGCAAUC [hsa-mir-96] | 0.411

====

The entries below are paired with their reported pull-down binding Z-score.
- Test system: G-clamp-N3 (biotin conjugate)
- run.description: pull-down binding Z-score (relative to library population); higher = stronger binding
- measurement.setup: RNA library: Library-1 (pre-miRNA loops + repeats)
recorded.metric: pull-down binding Z-score

sequence.chain | result.value
CAGAGUUCCCUUCUUGUGAGCUCAG [hsa-mir-6733] | -0.936
CUACUAGUUUGUAGUAGUUCGUAGCAG [hsa-mir-3919] | 0.56
CAUCAUUUGCACUACUGAUACUUGGGGUCAGAUAAUUGUUUGUGGUG [hsa-mir-4447] | 0.115
CCUUGCCUGUGGCAAGACCACUUCGGUUCAAGG [hsa-mir-4295] | 0.54
UUAUCUGUCACCAGUCAGAUAACUGUCACCAGUCAGUUAA [hsa-mir-4764] | -0.644
UUGUAAUAGUGUAGAAUGUUGGUUAAC [hsa-mir-591] | 0.797
CUGCCAUUGAAAGUAAAGGCAA [hsa-mir-548ag-2] | 0.525
ACCAAAACACUCAUCGCGG [hsa-mir-1260a] | -0.734
CUCAGGACAGCGGGUGUCAGCUUGCCUGAC [hsa-mir-6859-1_6859-3_6859-2_6859-4] | -0.377
CAGGCUGUGGCUCUCUGAAAGUC [hsa-mir-148b] | -1.29
CCUUCUACCAAGUUAAGCAUACUCAUUAGAAGG [hsa-mir-3914-2] | -0.275
UGCUGGAGAAGUGUUU [hsa-mir-557] | -0.431
CUUGGGCCCAUUCCUUUCCUUACCCUAC [hsa-mir-6798] | -1.1
GCUGCUUGCACUCGUUCAGC [hsa-mir-3661] | 0.0999
ACGAGAGUGAGUAGCAGGUCUC [hsa-mir-128-2] | 2.31
GGAGACACUUUCACUAUAUAUAGUGGCUCC [hsa-mir-3156-2] | -0.175
CUUUGUCUGACUACAAUAUUCAAAAG [hsa-mir-4426] | -1.96
GUGUUUUCUCCUUUAGAGAGAGCUG [hsa-mir-4299] | 0.765
UGUACGCUUUAUUUGUGACGUAGG [hsa-mir-1197] | -0.171
CAGGCAGUGGAGUUACUU [hsa-mir-600] | -1.07
CCUUCUAAUGAGUAUGCUUAACUUGGUAGAAGG [hsa-mir-3914-1] | 0.508
GGUUUCGGGCUGCC [hsa-mir-661] | 0.142
CUGUUGAAAGAAAAG [hsa-mir-526a-2] | -0.371

====

The entries below are paired with their reported pull-down binding Z-score.
- Tested on: TO-3-N3-2 (biotin conjugate)
- run.description: pull-down binding Z-score (relative to library population); higher = stronger binding
- measurement.setup: RNA library: Library-2

sequence.chain | assay.target | pull-down binding Z-score
GCUGGCCUUGAAGCCCCUUUUCUCUAUCUUUAUGCUUUAGUCUACUUCUUGCAGAGUAUAAACUUUGUAAGAAUAAUAAUGAGGCUUUGGCUUUGC | TO-3-N3-2 (biotin conjugate) | -0.413
UUGUGUCCAUCAUGCAACAA [hsa-mir-802] | TO-3-N3-2 (biotin conjugate) | -0.248
AAUCAAAAAGAGUUGAUU [DMSMaPseq_invitro_SARS-CoV-2_Motif_439] | TO-3-N3-2 (biotin conjugate) | -0.434
GUUACUGUGGGAACUGGAGGUAAC [hsa-mir-132] | TO-3-N3-2 (biotin conjugate) | 0.489
AAAGUGCUUUUGUUAAUUUAAAACAAUUACCAUUUU [SHAPE_invivo_SARS-CoV-2_Motif_363] | TO-3-N3-2 (biotin conjugate) | -0.408
GUAUGAGUGGUGUGGAGUCUUCAUAA [hsa-mir-9-1] | TO-3-N3-2 (biotin conjugate) | -0.08
CAUUUGUAGUUUCAACUGGAUACCACUUCAGAGAGCUAGGUGUUGUACAUAAUCAGGAUGUAAACUUACAUAGCUCUAGACUUAGUUUUAAGGAAUUACUUGUG | TO-3-N3-2 (biotin conjugate) | -0.292
AGGACGGUGCGCCUUGUUUCCC [hsa-mir-3132] | TO-3-N3-2 (biotin conjugate) | -0.0152
CAACCUAAAUAGAGGUAUG | TO-3-N3-2 (biotin conjugate) | -0.292
GGGAGCAAACCC [IAV_invivo_PB1_2_Motif_31+IAV_invivo_PB1_2_Motif_31] | TO-3-N3-2 (biotin conjugate) | -0.259
UAUAGCUACAUCAGUUAUAACUAUAUCAGUUAAA [hsa-mir-5582] | TO-3-N3-2 (biotin conjugate) | 0.447
GAUGUAGAAUUGUUUGAAAAUAAAACAACAUU | TO-3-N3-2 (biotin conjugate) | -0.136
GCUGUGUUGAAUGAUUGGUGAGUUUGUUUGCUCAUUGAUUGAAUCACUGC [hsa-mir-3678] | TO-3-N3-2 (biotin conjugate) | 0.121
CCUCUAAAAGCCCCAAAAGAAAUUAUCUUCUUAGAGGGAGAAACACUUCCCACAGAAGUGUUAACAGAGG | TO-3-N3-2 (biotin conjugate) | -0.139
CUUAAGUGGUUCGGGUAAAUCACUUUAA [hsa-mir-3977] | TO-3-N3-2 (biotin conjugate) | -0.186
GCCAUGGAAAGUAAUGGC [hsa-mir-548ax] | TO-3-N3-2 (biotin conjugate) | -0.112
GGUGGGGGCUCUGAGUGGGGAAAGUGGGGGCCUAGGGGAGGUCACAGU [hsa-mir-4259] | TO-3-N3-2 (biotin conjugate) | 3.57
ACAAGGCUAUUGAUGGUGGUGUCACUCGUGACAUAGCAUCUACAGAUACUUGU [SHAPE_invitro_SARS-CoV-2_Motif_170] | TO-3-N3-2 (biotin conjugate) | -0.287
CUGUGACGUGCUCCAUCACCGGGCAG [hsa-mir-3714] | TO-3-N3-2 (biotin conjugate) | -0.391

====

The entries below are paired with their reported pull-down binding Z-score.
- System: TO-3-N3-2 (biotin conjugate)
- run.description: pull-down binding Z-score (relative to library population); higher = stronger binding
- measurement.setup: RNA library: Library-2

sequence.chain | pull-down binding Z-score
UGAGUGCUAUUUCAGUGCAACA [hsa-mir-362] | 0.108
AUCAUAAUAAAGGUGUCAUGAU [hsa-mir-3682] | -0.169
CUUUCUGUUGUCUGAAAGAAAAGAAAG [hsa-mir-520c_520b_519c_519b] | 0.102
CAGGCAAUAACAGUUACACCGGAAGCCAAUAUGGAUCAAGAAUCCUUUGGUGGUGCAUCGUGUUGUCUG [SHAPE_invivo_SARS-CoV-2_Motif_250] | 0.619
GCACACUAGAACCAGAAUAUUUCAAUUCAGUGUGU | -0.413
CAGUCCUGAGAUGCAGGGACUG [hsa-mir-4799] | -0.531

====

The entries below are paired with their reported pull-down binding Z-score.
- Test system: TO-N3 (biotin conjugate)
- run.description: pull-down binding Z-score (relative to library population); higher = stronger binding
- measurement.setup: RNA library: Library-2

sequence.chain | pull-down binding Z-score
UGCCAUACUUUUAACGGCA [hsa-mir-548i-4] | -1.09
GCGGGAGCCAGGCCGC [hsa-mir-3185] | -0.0208
UUUCUCUUAUGUGAAAAAAAAGAAG [hsa-mir-525] | -0.463
UAGGUUGUGUGCUGUCCAGCCUG [hsa-mir-26b] | -0.388
UGUCUUUCGAUCAAAACCUGGAUUAUCAAAUAGGAUACAUCUGCAGUGGGGUUUUCGGUGACAACCCGCGUCCCGAAGAUGGAACAGGCA | -0.552
